Source of measurements: patent US11053205B2

Tested on: human red blood cells
Recorded measurements of Hemolysis at 200 μM, one per entry

Answered examples (4):
Oc1c(Br)cc(Br)c2nc3cc(Cl)ccc3nc12 [Compound 61A] : ≤1%
CCN(CC)c1ccc2nc3c(O)c(Br)cc(Br)c3nc2c1Br [Compound 64A] : ≤1%
Cc1cc2nc3c(O)c(Br)cc(Br)c3nc2c(C)c1C [Compound 59A] : 1.3%
Oc1c(Br)cc(Br)c2nc3cc(Oc4ccccc4)ccc3nc12 [Compound 63A] : ≤1%

# Hemolysis at 200 μM (compound: CCc1ccc2nc3c(O)c(Br)cc(Br)c3nc2c1 [Compound 53A] ) is 3.0%

# Hemolysis at 200 μM (compound: COCCOCCOCCOCCOC(=O)Oc1c(Br)cc(Br)c2nc3cc(Cl)ccc3nc12 [Compound 77A] ) is 1.1%

# Hemolysis at 200 μM (compound: CS(=O)(=O)N1CCN(C(=O)Oc2c(Br)cc(Br)c3nc4ccccc4nc23)C1=O [Compound 76A] ) is ≤1%

# Hemolysis at 200 μM (compound: Cc1ccc2nc3c(O)c(Br)cc(Br)c3nc2c1 [Compound 52A] ) is ≤1%

# Hemolysis at 200 μM (compound: CC(C)(C)c1ccc2nc3c(O)c(Br)cc(Br)c3nc2c1 [Compound 55A] ) is ≤1%

# Hemolysis at 200 μM (compound: O=C(OCCSSCCOC(=O)c1ccccc1)OCOc1c(Br)cc(Br)c2nc3ccccc3nc12 [Compound 85A] ) is 1.3%

# Hemolysis at 200 μM (compound: COCCOCCOCCOCCOC(=O)Oc1c(Br)cc(Br)c2nc3cc(Oc4ccccc4)ccc3nc12 [Compound 78A] ) is ≤1%

###

Assay: LDH release assay for HeLa cytotoxicity
Conditions: human, HeLa cells
valueKind: IC50 at 24 h (µM)
Give the quantity in µM, number only.

# IC50 at 24 h (molecule: Oc1c(Br)cc(Br)c2nc3ccccc3nc12 ) is 100

###

Tested on: VRE 700221
Assay: MIC, broth microdilution (CLSI)
Details: 16 to 18 hours at 37° C.
Recorded measurements of VRE 700221 MIC, one per entry
Give the quantity in µM, number only.

Oc1c(Br)cc(Br)c2nc3cc(Oc4ccccc4)ccc3nc12 [63A] : 0.2
Oc1c(Br)cc(Br)c2nc3ccccc3nc12 : 6.25
Cc1ccc2nc3c(O)ccc(Br)c3nc2c1 [Compound 66A] : 25
CS(=O)(=O)N1CCN(C(=O)Oc2c(Br)cc(Br)c3nc4ccccc4nc23)C1=O [Compound 76A] : 3.13
CC1=C(C)C(=O)C(COC(=O)OCOc2c(Br)cc(Br)c3nc4cc(Cl)ccc4nc23)=C(C)C1=O [Compound 87A] : 1.56
CCCCCCCCCCCCCCCC[N+](C)(C)Cc1ccccc1.[Cl-] [BAC-16, reference compound] : 3.13
Oc1c(Br)cc(Br)c2nc3cc(Cl)ccc3nc12 [61A] : 0.39
Oc1ccc(Br)c2nc3cc(Cl)ccc3nc12 [Compound 69A] : 25

Proceeding to the next compound to report its VRE 700221 MIC.
Here Oc1c(Br)cc(Br)c2nc3cc(Oc4ccccc4)ccc3nc12 [Compound 34] was tested on VRE 700221, and its VRE 700221 MIC came to 0.2
